Test system: Caco-2
Assay: cell viability relative to DMSO; higher = less toxic
Details: 72 h; 1000 nM
cell viability by entry:
Give the quantity in %, number only.

Request: cell viability, test system Caco-2, entry `COc1cc2c(cc1OC)-c1cc3nc4ccccc4nc3n1C(C)(C)C2`
99.1

Request: cell viability, test system Caco-2, entry Cc1ncc(CO)c(CO)c1O [pyridoxine]
105

Request: cell viability, test system Caco-2, entry Cn1c2cc([S+](C)[O-])sc2c2cnn(Cc3cccc(N)c3)c(=O)c21 (configuration not stated) [TEPP-46]
98.1

Request: cell viability, test system Caco-2, entry CNCc1cc(-c2ccccc2F)n(S(=O)(=O)c2cccnc2)c1 [vonoprazan]
100

Request: cell viability, test system Caco-2, entry COc1cc(Cc2cnc(N)nc2N)c(C(C)C)cc1OC [Ro-3]
101

Request: cell viability, test system Caco-2, entry COc1ccc(-c2cc(C(F)F)nn2-c2ccc(S(N)(=O)=O)cc2)cc1F [deracoxib]
98.6

Request: cell viability, test system Caco-2, entry N#Cc1ccnc(N2C(=O)CC[C@H]2C(=O)N(c2cncc(F)c2)[C@H](C(=O)NC2CC(F)(F)C2)c2ccccc2Cl)c1 [ivosidenib]
93
